Molecular target: Monoamine transporters; serotonin & dopamine (Rattus norvegicus) (UniProt P31652+P23977)
Sequence (P23977 whole entry, looked up): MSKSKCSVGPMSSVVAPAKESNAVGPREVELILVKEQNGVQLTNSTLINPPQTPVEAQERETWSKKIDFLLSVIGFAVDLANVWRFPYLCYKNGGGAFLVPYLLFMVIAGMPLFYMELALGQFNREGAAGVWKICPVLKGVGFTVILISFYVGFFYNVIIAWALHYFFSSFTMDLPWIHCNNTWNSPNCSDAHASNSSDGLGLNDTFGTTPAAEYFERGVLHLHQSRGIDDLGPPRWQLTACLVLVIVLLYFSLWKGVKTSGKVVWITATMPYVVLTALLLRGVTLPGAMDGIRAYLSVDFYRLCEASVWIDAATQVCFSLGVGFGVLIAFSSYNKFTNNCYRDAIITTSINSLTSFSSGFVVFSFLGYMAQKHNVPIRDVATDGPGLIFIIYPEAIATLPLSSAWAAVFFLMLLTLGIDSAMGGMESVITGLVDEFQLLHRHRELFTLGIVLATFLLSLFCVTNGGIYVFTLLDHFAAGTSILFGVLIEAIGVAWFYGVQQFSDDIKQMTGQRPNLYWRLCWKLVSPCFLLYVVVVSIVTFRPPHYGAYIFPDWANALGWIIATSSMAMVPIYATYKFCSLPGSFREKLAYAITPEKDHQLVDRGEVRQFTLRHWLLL
Sequence (P31652 whole entry, looked up): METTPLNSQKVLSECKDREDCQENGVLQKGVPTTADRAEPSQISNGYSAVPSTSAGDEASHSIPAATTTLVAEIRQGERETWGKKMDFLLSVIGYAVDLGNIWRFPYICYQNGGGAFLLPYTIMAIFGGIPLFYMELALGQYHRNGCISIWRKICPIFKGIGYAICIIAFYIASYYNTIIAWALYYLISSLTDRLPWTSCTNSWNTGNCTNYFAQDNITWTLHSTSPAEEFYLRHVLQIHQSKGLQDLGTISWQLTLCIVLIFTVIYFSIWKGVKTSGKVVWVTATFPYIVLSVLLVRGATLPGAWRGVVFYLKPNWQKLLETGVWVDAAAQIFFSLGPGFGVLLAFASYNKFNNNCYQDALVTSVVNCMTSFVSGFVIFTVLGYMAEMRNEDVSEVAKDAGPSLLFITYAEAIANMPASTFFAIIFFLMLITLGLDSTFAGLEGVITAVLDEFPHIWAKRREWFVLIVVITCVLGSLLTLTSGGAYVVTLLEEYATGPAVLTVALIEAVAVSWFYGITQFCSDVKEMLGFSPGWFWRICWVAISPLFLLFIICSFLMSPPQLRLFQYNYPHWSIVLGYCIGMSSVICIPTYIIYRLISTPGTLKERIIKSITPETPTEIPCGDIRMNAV
Assay: Selectivity for inhibition of serotonin and dopamine transporters
Format: protein assay
Rule: Ratio below 5 gives 1.0. Equal to or above 5 gives 0.0.

Check out these entries, answers already filled in.
compound: COC(=O)C1C(c2ccc(I)cc2)CC2CCC1N2C (stereo unspecified)
assigned category: 1.0
//
compound: COC(=O)C1C2CCC(CC1c1ccc(-c3cccs3)cc1)N2 (stereo unspecified)
assigned category: 0.0
//
compound: COC(=O)C1C2CCC(CC1c1ccc(-c3ccsc3)cc1)N2 (stereo unspecified)
assigned category: 0.0
//
compound: COC(=O)C1C(c2ccc(-c3ccc(Br)s3)cc2)CC2CCC1N2C (stereo unspecified)
assigned category: 0.0

Read the next record carefully.
Given the entry COC(=O)C1C(c2ccc(-c3ccc(N)s3)cc2)CC2CCC1N2C (stereo unspecified) , would its reported Ratio be below 5?
0.0
